# System: male rats
# conditionNotes: rat, in vivo
measuredQuantity: Inhibition of veratridine-induced pain-like behaviors (licking and paw-flinching)

INSERT INTO measurements (testsmiles, observedmeasurement) VALUES
  ('CN1CC[C@]23c4c5ccc(O)c4O[C@H]2[C@@H](O)C=C[C@H]3[C@H]1C5', 'inhibited somewhat'),
  ('CNCC[C@H](Oc1cccc2ccccc12)c1cccs1', 'inhibited somewhat');

Source: patent US20130115171A1
